Form field: TGI (one value per entry).
- System: COLO 205 colon
- Assay info: NCI tumour cell line growth inhibition, 48 h
Readout type: TGI

O=C1/C(=C\c2ccc([N+](=O)[O-])cc2)N(S(=O)(=O)c2ccccc2)c2ncccc21: 56.8 µM
CC1(c2cccc(C3CC4(CCC3=O)OCCCCO4)c2)OCCO1 (configuration not stated): > 100 µM
COC(=O)c1ccc2[nH]c(O)c(C(=Nc3ccc(N(C)C(=O)CN4CCN(C)CC4)cc3)c3ccc4c(c3)OCO4)c2c1: 1.74 µM
Nc1cc([N+](=O)[O-])ccc1C(=O)N1CCC[C@H]1CO: > 100 µM
C=CCCON(C(=O)OC(C)(C)C)c1ccccc1: > 100 µM
Clc1ccc(CCN(CCc2ccc(Cl)c(Cl)c2)CCN2CCCC2)cc1Cl: 3.48 µM
C/C(=N\NS(=O)(=O)c1ccc(C)cc1)c1ccccn1: 93.5 µM
CCCCCCCCCC[C@@H](OC(C)=O)[C@@H]1CC[C@@H]([C@@H]2CC[C@@H]([C@@H](O)CC#C/C=C/CCCCCCC[C@@]3(Sc4ccccc4)C[C@H](C)OC3=O)O2)O1: > 10 µM
COc1cccc2c1C(=N)c1c(O)c3c(c(O)c1C2=O)C[C@@](O)(C(C)=O)C[C@@H]3O[C@H]1C[C@H](N)[C@H](O)[C@H](C)O1: 3.16 µM
O=C1/C(=C/C=C/c2ccccc2)CCC1CNc1ccccc1 (configuration not stated): > 94.3 µM
Cc1cc(C)nc(NS(=O)(=O)c2ccc(Nc3c4ccccc4nc4ccc(C(=O)Nc5ccc(S(N)(=O)=O)cc5)cc34)cc2)n1: > 100 µM
CS(=O)(=O)Nc1ccc2ccccc2c1-c1c(NS(C)(=O)=O)ccc2ccccc12: > 25 µM
N#CCC(=O)N/N=C1/C(=O)N(c2ccc(Cl)cc2)C(=O)C(=O)C1c1nc2ccccc2s1 (configuration not stated): > 100 µM
CCOP(=Nc1ccc(N(C)C)cc1)(OCC)OCC: > 100 µM
CC(C)(C)C1CCC(=O)/C(=C/CC2CC(=O)N(c3ccccc3)C(=O)C2)C1 (configuration not stated): 41.2 µM
Cc1ccc(C2=C(c3ccc(C)cc3)C3(c4ccc(C)cc4)C4C(=O)OC(=O)C4C2(c2ccc(C)cc2)S3=O)cc1 (configuration not stated): > 100 µM
O=C(O)CCC1CCc2cccc(O)c2C1=O (configuration not stated): > 100 µM
O=C(/C=C/c1ccccc1)Nc1ncc(Cc2ccccc2Cl)s1: > 100 µM
CC12C=CC(C)(C3C(=O)C4C(C(=O)C31)C1(C)C=CC4(C)S1=O)S2=O (configuration not stated): > 100 µM
COc1ccc2c(c1)CN1C(=N2)CSC1c1cccc(Br)c1 (configuration not stated): > 100 µM
N#C/C(=C/c1cccc(Oc2ccccc2)c1)c1ccccc1: > 100 µM
O=C1C2=Cc3ccccc3OC2(O)Oc2cc3ccccc3cc21 (configuration not stated): > 100 µM
Cn1c(Cl)c(/C=C2/C(=O)Nc3ccccc32)c2ccccc21: 6.64 µM
O=C(Nc1ccc(C(F)(F)F)cc1[N+](=O)[O-])C(=O)C1NC(=S)NC1=O (configuration not stated): 26.6 µM
CC(C)(C)C1=C(Br)C(C(C)(C)C)OP1(=O)O (configuration not stated): > 100 µM
Cc1cn(C2CC(OC(=O)c3ccc(Cl)cc3)C(COC(=O)c3ccc(Cl)cc3)O2)c(=O)[nH]c1=O (configuration not stated): > 100 µM
CC/C=C\C[C@H]1CC=C2C(=O)C=C[C@@H]2CC=CCCCC(=O)O[C@@H](CCCCC)CC=C2C(=O)C=C[C@@H]2CC=CCCCC(=O)O[C@@H](CCCCC)CC=C2C(=O)C=C[C@@H]2CC=CCCCC(=O)O[C@@H](CCCCC)CC=C2C(=O)C=C[C@@H]2CC=CCCCC(=O)O1: 3.6 µM
CC(=O)OCC1OC(N2C(c3ccccc3)=CC(c3cccs3)C(C#N)=C2S)C(OC(C)=O)C(OC(C)=O)C1OC(C)=O (configuration not stated): > 100 µM
COc1cc(C=O)c(-c2c(C=O)ccc3c2OCO3)c(OC)c1OC: > 100 µM
COc1cc(C2c3cc4c(cc3OC(C)(N3CCCC3)C2C)OCO4)cc(OC)c1OC (configuration not stated): 0.528 µM
CC1(O)C(C)(O)C2(C)O[Te]3(OC12C)OC1(C)C(C)(O)C(C)(O)C1(C)O3 (configuration not stated): > 100 µM
COc1ccc2c(c1)NC1=C(C(=O)OC1)C2c1cc(OC)c(OC)c(OC)c1 (configuration not stated): < 0.01 µM
CCOC1C(Br)Cn2c(=O)c3cc4ccccc4cc3c(=O)n2C1C (configuration not stated): > 100 µM
CCOC(=O)C(NC(=O)Nc1ccc(C)cc1)(OCC)C(F)(F)F (configuration not stated): > 100 µM
O=C(O)CO[C@@]12C#C/C=C\C#C[C@@H]3N(C(=O)Oc4ccccc4)c4ccccc4[C@]14O[C@@]34CCC2: 46.8 µM
O=C(Nc1ccc(Cl)cc1)C1C(=O)C(=O)N(c2ccc(Cl)cc2)C1=O (configuration not stated): > 100 µM
C[C@@H](C(=O)O)N1C(c2ccco2)=C(/C(C=O)=C\c2ccco2)C(=O)/C1=C\c1ccco1: > 100 µM
